- Target Entity: T1, human galanin (mature, processed form) (human, UniProt P22466 33-62, 125I-labelled in the filtration and immunoprecipitation assays; biotinylated in the IGEN assay and in the BIAcore assay of Table 4)
- T1 construct: mature; the assays used the mature peptide; also called biotinylated galanin
- T1 peptide (looked up): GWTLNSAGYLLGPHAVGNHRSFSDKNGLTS
- Experiment Notes: BIAcore 3000; IgG captured by goat anti-human IgG Fc on CM5, human galanin peptide flowed; 1:1 Langmuir fit
Entries and their koff values follow.
All answers are understood in s⁻¹, so give the number only.

Here's what some known entries look like.
Look up koff: humanized 5B4 IgG1: light chain zu5B4 v04 with heavy chain zu5B4 v12 (antibody, V domains shown, Human IgG1 / human kappa, expressed in E5 cells; VH of humanized 5B4-v12, VL of humanized 5B4-v4) VH: EVQLVQSGAEVKKPGATVKISCKVSGFNIEDYYMHWVQQAPGKGLEWMGRIDPENGNTIYDPKFQGRATITADTSTDTAYLDLSSLRSEDTAVYYCARGYVDWGQGTLVTVSS VL: DVVMTQSPLSLPVTLGQPASISCRSSQSIVHSDGDTYLEWYLQRPGQSPMLLIYKVSNRFSGVPDRFSGSGSGTDFTLKITRVEAEDVGVYYCFQGSHVPYTFGGGTKVEIKR
0.0048

How about humanized 5B4 IgG1: light chain zu5B4 v04 with heavy chain zu5B4 v06 (antibody, V domains shown, Human IgG1 / human kappa, expressed in E5 cells; VH of humanized 5B4-v6, VL of humanized 5B4-v4) VH: EVQLVQSGAEVKKPGATVKISCKVSGFNIEDYYMHWVQQAPGKGLEWIGRIDPENGNTIYDPKFQGRATITADTSTNTAYLDLSSLRSEDTAVYYCARGYVDWGQGTLVTVSS VL: DVVMTQSPLSLPVTLGQPASISCRSSQSIVHSDGDTYLEWYLQRPGQSPMLLIYKVSNRFSGVPDRFSGSGSGTDFTLKITRVEAEDVGVYYCFQGSHVPYTFGGGTKVEIKR ?
0.0051

How about humanized 5B4 IgG1: light chain zu5B4 v04 with heavy chain zu5B4 v11 (antibody, V domains shown, Human IgG1 / human kappa, expressed in E5 cells; VH of humanized 5B4-v11, VL of humanized 5B4-v4) VH: EVQLVQSGAEVKKPGATVKISCKVSGFNIEDYYMHWVQQAPGKGLEWMGRIDPENGNTIYDPKFQGRVTITADTSTNTAYMDLSSLRSEDTAVYYCARGYVDWGQGTLVTVSS VL: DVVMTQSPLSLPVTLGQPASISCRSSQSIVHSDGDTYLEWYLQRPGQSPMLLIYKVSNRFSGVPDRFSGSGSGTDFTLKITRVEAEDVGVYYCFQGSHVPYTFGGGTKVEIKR ?
0.0056

Continuing:
Look up koff: humanized 5B4 IgG1: light chain zu5B4 v04 with heavy chain zu5B4 v13 (antibody, V domains shown, Human IgG1 / human kappa, expressed in E5 cells; VH of humanized 5B4-v13, VL of humanized 5B4-v4) VH: EVQLVQSGAEVKKPGATVKISCKVSGFNIEDYYMHWVQQAPGKGLEWIGRIDPENGNTIYDPKFQGRVTITADTSTNTAYMDLSSLRSEDTAVYYCARGYVDWGQGTLVTVSS VL: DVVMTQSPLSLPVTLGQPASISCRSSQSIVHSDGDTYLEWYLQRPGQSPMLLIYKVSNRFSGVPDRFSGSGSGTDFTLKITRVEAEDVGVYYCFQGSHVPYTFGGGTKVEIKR
0.005

How about humanized 5B4 IgG1: light chain zu5B4 v05 with heavy chain zu5B4 v04 (antibody, V domains shown, Human IgG1 / human kappa, expressed in E5 cells; VH of humanized 5B4-v4, VL of humanized 5B4-v5) VH: EVQLVQSGAEVKKPGATVKISCKVSGFNIEDYYMHWVQQAPGKGLEWMGRIDPENGNTIYDPKFQGRVTITADTSTNTAYLDLSSLRSEDTAVYYCARGYVDWGQGTLVTVSS VL: DVVMTQSPLSLPVTLGQPASISCRSSQSIVHSDGDTYLEWYQQRPGQSPMSLIYKVSNRFSGVPDRFSGSGSGTDFTLKITRVEAEDVGVYYCFQGSHVPYTFGGGTKVEIKR ?
0.0095

How about humanized 5B4 IgG1: light chain zu5B4 v13 with heavy chain zu5B4 v04 (antibody, V domains shown, Human IgG1 / human kappa, expressed in E5 cells; VH of humanized 5B4-v4, VL of humanized 5B4-v13) VH: EVQLVQSGAEVKKPGATVKISCKVSGFNIEDYYMHWVQQAPGKGLEWMGRIDPENGNTIYDPKFQGRVTITADTSTNTAYLDLSSLRSEDTAVYYCARGYVDWGQGTLVTVSS VL: DVVMTQSPLSLPVTLGQPASISCRSSQSIVHSDGDTYLEWYQQRPGQSPMLLIYKVSNRFSGVPDRFSGSGSGTDFTLKITRVEAEDVGVYYCFQGSHVPYTFGGGTKVEIKR ?
0.007

How about humanized 5B4 IgG1: light chain zu5B4 v04 with heavy chain zu5B4 v04 (antibody, V domains shown, also called P1A7 (as IgG1); humanized 5B4-v4) VH: EVQLVQSGAEVKKPGATVKISCKVSGFNIEDYYMHWVQQAPGKGLEWMGRIDPENGNTIYDPKFQGRVTITADTSTNTAYLDLSSLRSEDTAVYYCARGYVDWGQGTLVTVSS VL: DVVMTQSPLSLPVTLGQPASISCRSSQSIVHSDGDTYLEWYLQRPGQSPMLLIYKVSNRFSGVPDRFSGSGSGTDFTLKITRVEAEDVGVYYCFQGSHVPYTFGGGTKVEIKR ?
0.0059

Origin of measurements: patent US20050152896A1
